System: NCI-H647
ASSAY REMARKS: relative viability (nuclei count vs DMSO), 5 days (fraction); higher = more cells survive
REPORTED CONDITIONS: first compound 2.53 µM
Parameter: relative viability. Scope: all listed entries.
MEASUREMENT LABEL: relative viability

INSERT INTO results (molecule, result_value) VALUES
  ('O=c1cc(-c2cccc3c2Sc2ccccc2S3)oc(N2CCOCC2)c1 + Nc1ncn([C@H]2C[C@H](O)[C@@H](CO)O2)c(=O)n1 [Decitabine] (partner 2 µM)', 0.403),
  ('O=c1cc(-c2cccc3c2Sc2ccccc2S3)oc(N2CCOCC2)c1 + COc1cccc2cc(-c3nc([C@H]4CC[C@H](C(=O)O)CC4)n4ncnc(N)c34)[nH]c12 [OSI-027] (partner 0.5 µM)', 0.513),
  ('COc1nc(C)cnc1NS(=O)(=O)c1cccnc1-c1ccc(-c2nnco2)cc1 [Zibotentan] + CS(=O)(=O)N1CCN(Cc2cc3nc(-c4cccc5[nH]ncc45)nc(N4CCOCC4)c3s2)CC1 [Pictilisib] (partner 1 µM)', 0.388),
  ('O=c1cc(-c2cccc3c2Sc2ccccc2S3)oc(N2CCOCC2)c1 + Cc1nc(Nc2ncc(C(=O)Nc3c(C)cccc3Cl)s2)cc(N2CCN(CCO)CC2)n1 [Dasatinib] (partner 0.075 µM)', 0.123),
  ('O=c1cc(-c2cccc3c2Sc2ccccc2S3)oc(N2CCOCC2)c1 + O=C(CCCCCCC(=O)Nc1ccccc1)NO [Vorinostat] (partner 1 µM)', 0.638),
  ('COc1nc(C)cnc1NS(=O)(=O)c1cccnc1-c1ccc(-c2nnco2)cc1 [Zibotentan] + COc1cccc2cc(-c3nc([C@H]4CC[C@H](C(=O)O)CC4)n4ncnc(N)c34)[nH]c12 [OSI-027] (partner 0.5 µM)', 0.725),
  ('O=c1cc(-c2cccc3c2Sc2ccccc2S3)oc(N2CCOCC2)c1 + Nc1nc2[nH]cc(CCc3ccc(C(=O)N[C@@H](CCC(=O)O)C(=O)O)cc3)c2c(=O)[nH]1 [Pemetrexed] (partner 0.2 µM)', 0.169);

----------
Quick list: relative viability per entry.
System: NCI-H1755
ASSAY REMARKS: relative viability (nuclei count vs DMSO), 5 days (fraction); higher = more cells survive
REPORTED CONDITIONS: first compound 0.01 µM
MEASUREMENT LABEL: relative viability

INSERT INTO results (compound, result_value) VALUES
  ('CCN(CC)CCCCNc1ncc2cc(-c3cc(OC)cc(OC)c3)c(NC(=O)NC(C)(C)C)nc2n1 + C[C@]1(O)C[C@@H](c2nc(-c3ccc4ccc(-c5ccccc5)nc4c3)c3c(N)nccn32)C1 [Linsitinib] (partner 1 µM)', 1.08),
  ('CCN(CC)CCCCNc1ncc2cc(-c3cc(OC)cc(OC)c3)c(NC(=O)NC(C)(C)C)nc2n1 + O=C(c1cc(Cc2n[nH]c(=O)c3ccccc23)ccc1F)N1CCN(C(=O)C2CC2)CC1 [Olaparib] (partner 8 µM)', 0.874);

----------
Test system: NCI-H358
ASSAY REMARKS: relative viability (nuclei count vs DMSO), 5 days (fraction); higher = more cells survive
REPORTED CONDITIONS: first compound 8 µM
Listed here are compounds together with their documented relative viability.
MEASUREMENT LABEL: relative viability

INSERT INTO measurements (compound, result_value) VALUES
  ('O=c1cc(-c2cccc3c2Sc2ccccc2S3)oc(N2CCOCC2)c1 + CCNC(=O)c1noc(-c2cc(C(C)C)c(O)cc2O)c1-c1ccc(CN2CCOCC2)cc1 [Luminespib] (partner 0.01 µM)', 0.292),
  ('O=c1cc(-c2cccc3c2Sc2ccccc2S3)oc(N2CCOCC2)c1 + Cc1nc(NC(=O)N2CCC[C@H]2C(N)=O)sc1-c1ccnc(C(C)(C)C(F)(F)F)c1 [Alpelisib] (partner 2 µM)', 0.795),
  ('O=c1cc(-c2cccc3c2Sc2ccccc2S3)oc(N2CCOCC2)c1 + CS(=O)(=O)N1CCN(Cc2cc3nc(-c4cccc5[nH]ncc45)nc(N4CCOCC4)c3s2)CC1 [Pictilisib] (partner 1 µM)', 0.33),
  ('O=c1cc(-c2cccc3c2Sc2ccccc2S3)oc(N2CCOCC2)c1 + O=C(CCCCCCC(=O)Nc1ccccc1)NO [Vorinostat] (partner 1 µM)', 0.632),
  ('O=c1cc(-c2cccc3c2Sc2ccccc2S3)oc(N2CCOCC2)c1 + COc1cc2c(Oc3ccc(NC(=O)C4(C(=O)Nc5ccc(F)cc5)CC4)cc3F)ccnc2cc1OCCCN1CCOCC1 [Foretinib] (partner 0.25 µM)', 0.797);

----------
Measured relative viability by item
Test system: NCI-H1437
ASSAY REMARKS: relative viability (nuclei count vs DMSO), 5 days (fraction); higher = more cells survive
REPORTED CONDITIONS: first compound 0.8 µM
MEASUREMENT LABEL: relative viability

INSERT INTO measurements (molecule, assayed_system, result_value) VALUES
  ('O=c1cc(-c2cccc3c2Sc2ccccc2S3)oc(N2CCOCC2)c1 + CS(=O)(=O)CCNCc1ccc(-c2ccc3ncnc(Nc4ccc(OCc5cccc(F)c5)c(Cl)c4)c3c2)o1 [Lapatinib] (partner 2 µM)', 'NCI-H1437', 0.817),
  ('O=c1cc(-c2cccc3c2Sc2ccccc2S3)oc(N2CCOCC2)c1 + CS(=O)(=O)N1CCN(Cc2cc3nc(-c4cccc5[nH]ncc45)nc(N4CCOCC4)c3s2)CC1 [Pictilisib] (partner 1 µM)', 'NCI-H1437', 0.395),
  ('COc1nc(C)cnc1NS(=O)(=O)c1cccnc1-c1ccc(-c2nnco2)cc1 [Zibotentan] + CC(=O)c1c(C)c2cnc(Nc3ccc(N4CCNCC4)cn3)nc2n(C2CCCC2)c1=O [Palbociclib] (partner 0.5 µM)', 'NCI-H1437', 0.288),
  ('O=c1cc(-c2cccc3c2Sc2ccccc2S3)oc(N2CCOCC2)c1 + N=C(N)NC(=N)NCCc1ccccc1 [Phenformin] (partner 250 µM)', 'NCI-H1437', 0.238),
  ('COc1nc(C)cnc1NS(=O)(=O)c1cccnc1-c1ccc(-c2nnco2)cc1 [Zibotentan] + CC1(C)CCC(c2ccc(Cl)cc2)=C(CN2CCN(c3ccc(C(=O)NS(=O)(=O)c4ccc(N[C@H](CCN5CCOCC5)CSc5ccccc5)c(S(=O)(=O)C(F)(F)F)c4)cc3)CC2)C1 [Navitoclax] (partner 0.5 µM)', 'NCI-H1437', 1.07),
  ('O=c1cc(-c2cccc3c2Sc2ccccc2S3)oc(N2CCOCC2)c1 + COc1cccc2cc(-c3nc([C@H]4CC[C@H](C(=O)O)CC4)n4ncnc(N)c34)[nH]c12 [OSI-027] (partner 0.5 µM)', 'NCI-H1437', 1.01),
  ('O=c1cc(-c2cccc3c2Sc2ccccc2S3)oc(N2CCOCC2)c1 + CC(=O)Nc1cccc(-n2c(=O)n(C3CC3)c(=O)c3c(Nc4ccc(I)cc4F)n(C)c(=O)c(C)c32)c1 [Trametinib] (partner 0.02 µM)', 'NCI-H1437', 0.483),
  ('COc1nc(C)cnc1NS(=O)(=O)c1cccnc1-c1ccc(-c2nnco2)cc1 [Zibotentan] + Nc1nc2[nH]cc(CCc3ccc(C(=O)N[C@@H](CCC(=O)O)C(=O)O)cc3)c2c(=O)[nH]1 [Pemetrexed] (partner 0.2 µM)', 'NCI-H1437', 0.281);

----------
Test system: EPLC-272H
ASSAY REMARKS: relative viability (nuclei count vs DMSO), 5 days (fraction); higher = more cells survive
REPORTED CONDITIONS: first compound 20 µM
MEASUREMENT LABEL: relative viability

INSERT INTO results (compound, measurement_label, result_value) VALUES
  ('COCC1(CO)C(=O)C2CCN1CC2 (stereo not drawn) [PRIMA-1MET] + Cc1cc(Nc2cc(N3CCN(C)CC3)nc(Sc3ccc(NC(=O)C4CC4)cc3)n2)n[nH]1 [Tozasertib] (partner 0.1 µM)', 'relative viability', 0.105),
  ('COCC1(CO)C(=O)C2CCN1CC2 (stereo not drawn) [PRIMA-1MET] + NC(=O)Nc1cc(-c2cccc(F)c2)sc1C(=O)N[C@H]1CCCNC1 [AZD7762] (partner 0.2 µM)', 'relative viability', 0.147),
  ('COCC1(CO)C(=O)C2CCN1CC2 (stereo not drawn) [PRIMA-1MET] + CC(=O)Nc1cccc(-n2c(=O)n(C3CC3)c(=O)c3c(Nc4ccc(I)cc4F)n(C)c(=O)c(C)c32)c1 [Trametinib] (partner 0.02 µM)', 'relative viability', 0.216);

----------
Test system: COR-L23
ASSAY REMARKS: relative viability (nuclei count vs DMSO), 5 days (fraction); higher = more cells survive
REPORTED CONDITIONS: first compound 1 µM
MEASUREMENT LABEL: relative viability

INSERT INTO results (compound, assayed_system, result_value) VALUES
  ('O=c1cc(N2CCOCC2)oc2c(-c3cccc4c3sc3ccccc34)cccc12 + COc1cc2c(Oc3ccc(NC(=O)C4(C(=O)Nc5ccc(F)cc5)CC4)cc3F)ccnc2cc1OCCCN1CCOCC1 [Foretinib] (partner 0.25 µM)', 'COR-L23', 1.06),
  ('CCN(CC)CCCCNc1ncc2cc(-c3cc(OC)cc(OC)c3)c(NC(=O)NC(C)(C)C)nc2n1 + Cc1nc(NC(=O)N2CCC[C@H]2C(N)=O)sc1-c1ccnc(C(C)(C)C(F)(F)F)c1 [Alpelisib] (partner 2 µM)', 'COR-L23', 0.856),
  ('O=c1cc(N2CCOCC2)oc2c(-c3cccc4c3sc3ccccc34)cccc12 + CC(C)C[C@H](NC(=O)[C@H](Cc1ccccc1)NC(=O)c1cnccn1)B(O)O [Bortezomib] (partner 0.002 µM)', 'COR-L23', 1.03),
  ('O=c1cc(N2CCOCC2)oc2c(-c3cccc4c3sc3ccccc34)cccc12 + CC(=O)c1c(C)c2cnc(Nc3ccc(N4CCNCC4)cn3)nc2n(C2CCCC2)c1=O [Palbociclib] (partner 0.5 µM)', 'COR-L23', 0.316);

// data source = the supplement of paper PMC10307832
